Reference source for all entries: ChEMBL document CHEMBL1201862

# System: KM12
# TEST PROTOCOL: NCI tumour cell line growth inhibition, 48 h
Calls of active or inactive are those of the source. Rule as the data show it: active = GI50 up to about 1.1 µM and inactive = higher.
Outcome codes: TRUE for active, FALSE for inactive

MOLECULE	LABEL VALUE
CCOP(=O)(OCC)/C(C#N)=C/c1[nH]cnc1C	FALSE
COc1ccc(CNC(=O)[C@H](Cc2ccc(O)cn2)NC(C)=O)cc1	FALSE
Cc1ccc2c(c1)SC(c1cc3c(cc1Br)OCO3)S2 (stereo unspecified)	FALSE
COc1cc(C(c2c(O)c3ccccc3oc2=O)c2c(O)c3ccccc3oc2=O)cc(Br)c1O	FALSE
O=C1C(Cl)=C(NCCN2CCOCC2)C(=O)c2ncccc21	FALSE
Fc1ccc(C(OCCN2CC3CCC(C2)N3CCCc2ccccc2)c2ccc(F)cc2)cc1	FALSE
CC1(C)N=c2c(ncn2CCCO)=C(C(N)=O)N1	FALSE
CCOC(=O)c1c(/C=N\Nc2ccccc2)nc2ccccc2c1-c1ccccc1	FALSE
CC(=O)c1cccc(NC(=O)/C(=N\NC(C)(C)C)c2c(O)c3ccccc3oc2=O)c1	FALSE
CC(=O)c1ccc(-c2ccc(C(C)=O)s2)s1	FALSE
COCC(C#N)NC1CC(OC2CC(O)(C(=O)CO)Cc3c(O)c4c(c(O)c32)C(=O)c2c(OC)cccc2C4=O)OC(C)C1O (stereo unspecified)	TRUE
N#Cc1ccccc1OCCOc1ccccc1C#N	FALSE
Cc1cc(=O)oc2c(C)c3oc(CBr)cc3cc12	FALSE
CC(C)(C)OC(=O)NC(Cc1ccc(OC(C)(C)C)cc1)C(=O)N[C@H]1CCC[C@H]1C(=O)NC(Cc1ccccc1)C(=O)N1CCCC1C(N)=O (stereo partly specified)	FALSE
N/N=C(\CCN1CCCC1)CC(c1ccccc1)c1c(O)c2ccccc2oc1=O (stereo unspecified)	FALSE
CCOc1c(OC)cc(-c2nc3n(n2)C(=O)C(CC)S3)cc1OC (stereo unspecified)	FALSE
Oc1ccc2ccccc2c1NCn1nc(CCCCCCCCc2nn(CNc3c(O)ccc4ccccc34)c(=S)o2)oc1=S	FALSE
COC(=O)C1C(C(=O)OC)C2(OC)c3ccccc3-c3ccccc3C12 (stereo unspecified)	FALSE
CC(=O)Oc1ccc2c3c1[C@H]1O[C@H]1c1cccc(c1-3)[C@@H]1O[C@H]21	FALSE
O=C(/C=C\c1ccccc1O)c1ccc(O)cc1O	FALSE
CN1CCN(CC(=O)N2CCCn3c2nc2ccccc2c3=O)CC1	FALSE
CC(=O)C(CN1CCCCC1)C(c1ccccc1)c1c(O)c2ccccc2oc1=O (stereo unspecified)	FALSE
Cc1cc(O)nc(NN2C(Cl)C(=O)C2c2cccc(Cl)c2)n1 (stereo unspecified)	FALSE
Clc1nc(-[n+]2ccc(-c3ccncc3)cc2)nc(Nc2ccccc2)c1Cl	FALSE
CC(C)CC(CNC(Cc1ccc(Cl)cc1)C(N)=O)NC(=O)C(Cc1c[nH]cn1)NC(=O)CNC(=O)C(NC(=O)C(C)NC(=O)C(Cc1c[nH]c2ccccc12)NC(=O)C(CCC(=O)O)NC(=O)C(N)Cc1ccccc1)C(C)C (stereo unspecified)	FALSE
Fc1ccc(C2SCc3nc4ccccc4n32)cc1Cl (stereo unspecified)	FALSE
Oc1cc(O)cc(-c2nc3cc(F)ccc3s2)c1	FALSE
Cc1cccc(NC(=O)CSc2nnc(Cc3ccccc3)o2)c1	FALSE
CCc1ccc2nccc(NCCCN(C)C)c2c1[N+](=O)[O-]	FALSE
CCOC(=O)Cc1csc(Nc2ccccc2[N+](=O)[O-])n1	FALSE
Cc1nc2c(o1)C(=O)c1ccccc1/C2=N/C1CCCCC1N (stereo unspecified)	FALSE
COc1ccc(NC(C)=O)cc1N1C(=O)/C(=C\c2ccccc2)SC1c1cc(OC)c(OC)c(OC)c1 (stereo unspecified)	FALSE
Cc1nc2ccc(NC3OC(CO)C(O)C(O)C3O)cc2c(=O)n1-c1ccccc1 (stereo unspecified)	FALSE
CCCC(CCN)(CCN)[N+](=O)[O-]	FALSE
COc1cc(/C=C/c2nc(NC(=S)Nc3ccccc3)nnc2C)cc(OC)c1OC	FALSE
CC(=O)OC1C(Oc2c(C)cc3c(c2O)[C@@H](C)CC[C@@H]3[C@@H](C)CCC=C(C)C)OCC(O)C1O (stereo partly specified)	FALSE
CN(C)C1C(CO)OC(n2cnc3c(N)ncnc32)C1O (stereo unspecified)	FALSE
COCCCNC(=O)CC(=O)NCCCOC	FALSE
O=Cc1ccccc1CCn1c(=O)c2cc3c(=O)n(CCc4ccccc4C=O)c(=O)c3cc2c1=O	FALSE
Clc1nc2c(C#Cc3ccccc3)ncnc2n1C1CCCCO1 (stereo unspecified)	FALSE
CC(C)(C)OC(=O)C1=C(N)N(Cc2ccccc2)C2(C)C=CC(=O)C=C12 (stereo unspecified)	FALSE
